Data credit: the supplement of paper PMC9170038

Test system: K4 kissing-loop RNA reporter;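 further: bound reporter read as fluorescence of individual clusters on recovered sequencing chips by microscopy, with normalized cluster intensities fitted with a binding model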
Measurement description: apparent KD of K4 kissing-loop reporter; higher = weaker reporter binding
Test settings: Eterna round: R107; input ligand: FMN 200 uM
Reported metric: apparent KD of K4 kissing-loop reporter (nM)
Give the value in nM but do not write nM after it.

# Chain, System name, Unit abbrev, apparent KD of K4 kissing-loop reporter
records = [
    ("AAACGUUGGUGCGAUACCAGCUGCUCGGAAACGAGCUUGCUGGAGUGAUGUUCCAGGAAAAGCCCUUGGCAGCGCACCGACGAAA [MAT - Same State Theophlline B - Mod of Eli - D27]", "K4 kissing-loop RNA reporter", "nM", 856),
    ("AAGCGUAAAAUGGCGGACAUACUGCUCCCACGAGGACCGGUACGGCCGCCACUCGAAUGCGGCAGUGAUGUUGCCGCCUUAGCGU [KL-XTryp-A19]", "K4 kissing-loop RNA reporter", "nM", 84.6),
    ("AGCAGCAAAUCCUAGUGAUGUUAGGAUAUGUAGGAUAUCGGGAUACCGAGAAGGACAGAAGGAGGAGUGAUGUUCCUAAGCUGCA [FmnAX 24 #DoubleAptamer #DoubleK4 #SwitchBubble]", "K4 kissing-loop RNA reporter", "nM", 143),
    ("CGCUGGGCGAGUGAUGUUCGCUCACGUGAUACCAGUGCCAUCCAACACCCUUGGCAGCACGCGGGCAGUGAUGUUGUCCUUAGUG [Exclusion Theophylline A GF8]", "K4 kissing-loop RNA reporter", "nM", 127),
]

Now, please, on to the next sequence.
Param readout = apparent KD of K4 kissing-loop reporter; param system = K4 kissing-loop RNA reporter; param query = AGACUACUGACAGGAUAUAACAUAUUAGCUCGUAUACCAAAGGUAUACGAGCACCUUCUAGUGAUGUUAGAAGGGUCGGUAGUCA [Omei KL FMN B Exc B v1] ; response: value 297

====

Test system: MS2 coat protein
Measurement description: apparent KD of MS2 coat protein; designed switch direction (-1 OFF switch, 1 ON switch): 1; higher = weaker reporter binding
Test settings: input ligand: none
Catalogue of apparent KD of MS2 coat protein readings, one per entry.
Give the quantity in nM, number only.

Observe how each entry below is paired with its result.
# Chain, apparent KD of MS2 coat protein / nM
measured = [
    ("UGAAUAGUGAUAGGAUAUACAUGAGGAAUCCUCGUAGAAGGAUCAUAACAUGAGGAUCACCCAUGUAGCGCUCGAAAGAGCGCA [Mat - Same State NG 1 - JL mod - D55] (Eterna round: R96, puzzle: Same State NG 1)", 56.5),
    ("UUAAUUUACUGAGGAUAUCGUGUCGACUGAGUUGACAUGAGGAUCACCCAUGUGAGAAGUGGUAUCGAGAAGGCAGUAUUCAUA [JR_SSNG2_Sub023] (Eterna round: R96, puzzle: Same State NG 2)", 42),
    ("GCUGCGAUUAACGCCUACAUGAGGAUCACCCAUGUAUGUAGGCAGGAUAUCGUUUGCUUUGCAAACGAGAAGGGCUGUAGUAGC [salish99_SSNG3_R04_004] (Eterna round: R96, puzzle: Same State NG 3)", 86.9),
    ("UUGAAGAAUUAAGGAUAUCGAGUCGUCUAAUUAAACAUGAGGAUCACCCAUGUGGGUUGCGGUAUCGAGAAGGUAAAUUACUAA [JL JR Sub099 mod 1] (Eterna round: R96, puzzle: Same State NG 2)", 32.2),
]

Field request: apparent KD of MS2 coat protein | item: UGUAUACAUGAGGAUCACCCAUGUCAACGUAGUCGAGGAUAUGGGCAGCCGUGAGGCGUACCAGAAGGCGAAGAGG [JL-ss1-3.05 ViennaUCT mod] (Eterna round: R96, puzzle: Same State 1) 151

Consider next the sequence CUGAGAUGUCAAGGAUAUCACGUCGAUUAGACGUGAGAAGGUGAUCAGUACAUGAGGAUCACCCAUGUGUUACAUGGAACUCAG [Brourd's SSNG1/1-A2 mod 9] (Eterna round: R96, puzzle: Same State NG 1) in the same way. 571

Cool, now GCGAUAUGAUGCUACAUGAGGAUCACCCAUGUAGCGACAGCUAAGGAUAUUGGAAAGGGAGGAGACGAGAAGGUAGGGUCACGC [AK SSNG3-V2-24.1] (Eterna round: R96, puzzle: Same State NG 3) 17.2

Try this sequence too: GCUUGCGGCGCAGGAUAUGGGUGCCUGUACAUGAGGAUCACCCAUGUUAAGGGACGGAAAACGAACCAGAAGGGCGUCGCGAGC [Inraeded] (Eterna round: R96, puzzle: Same State NG 2) 1280

What do we get for AGGCUCAGAGCAGGAUAUAUGUGAUCACAUGAGGAUCACCCAUGUCUCGAGCUUCGGCUCGAGACAUAGAAGGGCUCUGAGCCA [SSNG2/3-B1] (Eterna round: R96, puzzle: Same State NG 2) ? 28.3

Query CGACACACGGCAGGAUAUGCUUAGCAAAGCUAAGCAGAAGGGCCUCAUGUCGUGGAAACGUGACAUGAGGAUCACCCAUGUUGC [Omei SS(NG)1 Cv1] (Eterna round: R96, puzzle: Same State NG 1) next 36.3

Next sequence: AGCUUUUAAUUAGGAUAUGGUCACAUGAGGAUCACCCAUGUAACGAUGAUAUAAUGUGGUCAAGACUAGAAGGGAUUGCUAACA [SameState NG2 #68] (Eterna round: R96, puzzle: Same State NG 2) 355

Note, next up: GUAGCAUACCGAGGAUAUUCAUAUAAUAACAUGAGGAUCACCCAUGUAUAUAGGCGAAAGCCUUGGGAGAAGGCGGAAUGCUAC [Xeonanis - 20 Mod64] (Eterna round: R96, puzzle: Same State NG 2) 31
